Quick reference: growth yield of the listed items.
- Test system: Trichoderma virens ATCC 9645
- assay-explanation: growth yield (OD600) relative to untreated control; higher = less growth inhibition
- run-conditions: compound concentration: 100 uM; 40 h
Structures can show the parent of a compound that is named as a salt. The whole screen tested about 1,300 compounds, of which about 75 (6%) showed an effect of 50% or more. Shown is part of a subset that was picked to be rich in strong results.
Dear colleague, please return just the value in %, with no unit written.

# example entries with known answers
{"columns": ["molecule", "assay-metric", "observed-value"],
 "data": [
  ["CCC(=O)OCC(=O)[C@@]1(OC(=O)CC)[C@H](C)C[C@H]2[C@H]3[C@H]([C@@H](O)C[C@@]21C)[C@@]1(C)C=CC(=O)C=C1C[C@H]3Cl [Alclometasone dipropionate]", "growth yield", 101],
  ["Cc1cnc(C(=O)NCCc2ccc(S(=O)(=O)NC(=O)NC3CCCCC3)cc2)cn1 [Glipizide]", "growth yield", 104],
  ["CCCCOC(=O)c1ccc(O)cc1", "growth yield", 46.4]
]}

# lookup: growth yield of N[C@H]1CONC1=O [(S)-(-)-Cycloserine]
104

Moving on to NC[C@H]1CC[C@H](C(=O)O)CC1
99.8

Cool, now CN1CCN(CCCN2c3ccccc3Sc3ccc(C(F)(F)F)cc32)CC1 [Trifluoperazine dihydrochloride]
20

###

- Tested on: Trichoderma virens ATCC 9645
- assay-explanation: growth yield (OD600) relative to untreated control; higher = less growth inhibition
- run-conditions: compound concentration: 100 uM; 72 h
Among all 1,300 compounds or so, about 75 (6%) showed an effect of 50% or more. The list comes from a sample in which strong results are over-represented; it also holds close analogues and randomly drawn compounds.
Quick list: growth yield per entry.
Express it in %; write the number only.

What does the record list as growth yield for COc1ccc(C[C@@H]2c3cc(OC)c(OC)cc3CC[N@+]2(C)CCC(=O)OCCCCCOC(=O)CC[N@@+]2(C)CCc3cc(OC)c(OC)cc3[C@H]2Cc2ccc(OC)c(OC)c2)cc1OC [Cisatracurium besylate] ?
94

// query: Nc1c2ccccc2nc2ccccc12 [Aminacrine]
96.9

Follow-up entry: O=C1C(CC[S+]([O-])c2ccccc2)C(=O)N(c2ccccc2)N1c1ccccc1 (stereo not given) [Sulfinpyrazone]
106

And what about the molecule Cc1cc(C2CCCCC2)n(O)c(=O)c1 [Ciclopirox ethanolamine] ?
1.15

Do the same for CCCc1nc(C(C)(C)O)c(C(=O)O)n1Cc1ccc(-c2ccccc2-c2nnn[nH]2)cc1 [Olmesartan] please
99.8

###

- Test system: Trichoderma virens ATCC 9645
- assay-explanation: growth yield (OD600) relative to untreated control; higher = less growth inhibition
- run-conditions: compound concentration: 100 uM; 40 h
Structures can show the parent of a compound that is named as a salt. Screen size: about 1,300 compounds; about 75 (6%) showed an effect of 50% or more. The list comes from a sample in which strong results are over-represented; it also holds close analogues and randomly drawn compounds.
assay-metric: growth yield (%)
Write it as a number; the unit % goes unstated.

{"columns": ["compound", "scale-unit", "observed-value"],
 "data": [
  ["CN1CCN(CCCN2c3ccccc3Sc3ccc(Cl)cc32)CC1 [Prochlorperazine dimaleate]", "%", 31],
  ["C[C@@H]1CCC[C@H](C)N1NC(=O)c1ccc(Cl)c(S(N)(=O)=O)c1 [Clopamide]", "%", 99.6],
  ["CCN(CC)CCOC(=O)C(c1ccccc1)c1ccccc1 [Adiphenine hydrochloride]", "%", 98.8]
]}

Could you share which growth yield value was measured for O=C1CN(/N=C/c2ccc(-c3ccc([N+](=O)[O-])cc3)o2)C(=O)N1 [Dantrolene sodium salt] ?
93.4

One more compound: Cc1ncc(CO)c(CO)c1O [Pyridoxine hydrochloride]
102

Also CN(C)CCOC1=Cc2ccccc2Sc2ccc(Cl)cc21 [Zotepine] , if possible.
89.7

Lookup CC(=O)c1ccc2c(c1)N(CCCN(C)C)c1ccccc1S2 [Acetopromazine maleate salt]
109

Another compound to check: CCSc1ccc2c(c1)N(CCCN1CCN(C)CC1)c1ccccc1S2 [Thiethylperazine dimalate]
3.02

COc1ccc(C(Cl)=C(c2ccc(OC)cc2)c2ccc(OC)cc2)cc1 [Chlorotrianisene] , same question.
101

How about this compound: N[C@@H](C(=O)N[C@@H]1C(=O)N2C(C(=O)O)=C(Cl)CS[C@H]12)c1ccccc1 [Cefaclor hydrate]
96.1

Next entry: CN(C)CCOC(c1ccccc1)c1ccccc1 [Diphenhydramine hydrochloride]
99.9

Same thing, different compound: COc1cc(N)c(Cl)cc1C(=O)NC1CCN(CCCOc2ccc(F)cc2)CC1OC (configuration not stated) [Cisapride]
108

And then CN(C)[C@@H]1C(O)=C(C(=O)NCNCCCC[C@H](N)C(=O)O)C(=O)[C@@]2(O)C(O)=C3C(=O)c4c(O)cccc4[C@@](C)(O)[C@H]3C[C@@H]12 [Lymecycline] , what is it?
82.1

What do we get for CCN(CC)CCOc1ccc(C(=C(Cl)c2ccccc2)c2ccccc2)cc1 [Clomiphene citrate (Z,E)] ?
1.75

Cool, now CN(C)CCCSC(=N)N [Dimaprit dihydrochloride]
102

Please do the same for CN(C)CCOc1ccc(/C(=C(/CCCl)c2ccccc2)c2ccccc2)cc1 [Toremifene] as well.
3.81

Field entry: CNC(C)CCC=C(C)C (configuration not stated) [Isometheptene mucate]
99.1

###

- System: Trichoderma virens ATCC 9645
- assay-explanation: growth yield (OD600) relative to untreated control; higher = less growth inhibition
- run-conditions: compound concentration: 100 uM; 40 h
Hit rate of the full screen: of about 1,300 compounds, about 75 (6%) showed an effect of 50% or more. What follows is part of a selection rich in strong results, with near analogues and random picks from the rest.
assay-metric: growth yield (%)
Quick reminder: number only, in %, skip the unit.

Past entries and their recorded results:
{"columns": ["molecule", "assay-metric", "scale-unit", "observed-value"],
 "data": [
  ["CC(C)(C)NC(=O)[C@H]1CC[C@H]2[C@@H]3CC[C@H]4NC(=O)C=C[C@]4(C)[C@H]3CC[C@]12C [Finasteride]", "growth yield", "%", 84],
  ["CC(=O)N(CC(O)CO)c1c(I)c(C(=O)NCC(O)CO)c(I)c(C(=O)NCC(O)CO)c1I (stereo unspecified) [Iohexol]", "growth yield", "%", 103],
  ["CCCCCCNC(=O)n1cc(F)c(=O)[nH]c1=O [Carmofur]", "growth yield", "%", 16.4],
  ["COc1ccc(-c2ccc3cc(C(=O)O)ccc3c2)cc1C12CC3CC(CC(C3)C1)C2 [Adapalene]", "growth yield", "%", 107],
  ["Cc1ncc([N+](=O)[O-])n1CC(O)CCl (stereo unspecified) [Ornidazole]", "growth yield", "%", 99.8],
  ["NS(=O)(=O)c1cc(C2(O)NC(=O)c3ccccc32)ccc1Cl (stereo unspecified) [Chlorthalidone]", "growth yield", "%", 102]
]}

Sample CO[C@H]1/C=C/O[C@@]2(C)Oc3c(C)c(O)c4c(O)c(c(/C=N/N5CCN(C6CCCC6)CC5)c(O)c4c3C2=O)NC(=O)/C(C)=C\C=C\[C@H](C)[C@H](O)[C@@H](C)[C@@H](O)[C@@H](C)[C@H](OC(C)=O)[C@@H]1C [Rifapentine] — what was its growth yield?
84.5

CC[C@H]1OC(=O)C[C@@H](O)[C@H](C)[C@@H](O[C@@H]2O[C@H](C)[C@@H](O[C@H]3C[C@@](C)(O)[C@@H](O)[C@H](C)O3)[C@H](N(C)C)[C@H]2O)[C@@H](CC=O)C[C@@H](C)C(=O)/C=C/C(C)=C/[C@@H]1CO[C@@H]1O[C@H](C)[C@@H](O)[C@@H](OC)[C@H]1OC [Tylosin] , same question.
95.9

###

The reader will find reported growth yield values listed item by item below.
- Tested on: Trichoderma virens ATCC 9645
- assay-explanation: growth yield (OD600) relative to untreated control; higher = less growth inhibition
- run-conditions: compound concentration: 100 uM; 72 h
Counter-ions that a name gives are not always drawn. The whole screen tested about 1,300 compounds, of which about 75 (6%) showed an effect of 50% or more. For the sample, strong results were picked, then their nearest neighbours and some compounds at random.
Reply with just the number (in %).

{"columns": ["compound", "growth yield (%)"],
 "data": [
  ["CCCN(CCC)CCc1cccc2c1CC(=O)N2 [Ropinirole hydrochloride]", 103],
  ["Clc1ccc(COC(Cn2ccnc2)c2ccc(Cl)cc2Cl)c(Cl)c1 (stereo not drawn) [Miconazole]", 1.47],
  ["O=C1CN(/N=C/c2ccc(-c3ccc([N+](=O)[O-])cc3)o2)C(=O)N1 [Dantrolene sodium salt]", 99.7],
  ["O=C(O)Cc1sc(-c2ccccc2)nc1-c1ccc(Cl)cc1 [Fentiazac]", 88.8]
]}

Need growth yield, item CC[C@]12CCCN3CCc4c(n(c5ccccc45)[C@@](O)(C(=O)OC)C1)[C@@H]32 [Vincamine]
95.3

Now the same for CC(=O)CC(c1ccccc1)c1c(O)c2ccccc2oc1=O (stereo not drawn) [Warfarin]
89.1

What do you have for CO/N=C(\C(=O)N[C@@H]1C(=O)N2C(C(=O)OC(C)OC(C)=O)=C(COC(N)=O)CS[C@H]12)c1ccco1 (stereo partly drawn) [Cefuroxime axetil] ?
96.5

Next: COc1ccc(OC)c(C(O)CNC(=O)CN)c1 (stereo not drawn) [Midodrine hydrochloride]
105

Query NS(=O)(=O)c1cc2c(cc1C(F)(F)F)NCNS2(=O)=O [Hydroflumethiazide] next
100

// query: CCc1oc2ccccc2c1C(=O)c1cc(Br)c(O)c(Br)c1 [Benzbromarone]
77.8

And N[C@H]1CONC1=O [(S)-(-)-Cycloserine] ?
96.8

How about this compound: O=c1[nH]c(=O)n([C@H]2C[C@H](O)[C@@H](CO)O2)cc1I [Idoxuridine]
99.4

Check O=c1[nH]c(=O)n([C@H]2C[C@H](O)[C@@H](CO)O2)cc1C(F)(F)F [Trifluridine] too.
106

Also check O=c1[nH]c(=O)n([C@H]2C[C@H](O)[C@@H](CO)O2)cc1F [Floxuridine]
46.3

Also COC(=O)[C@H](c1ccccc1Cl)N1CCc2sccc2C1 [Clopidogrel] ?
82

Another compound to check: O=c1oc2ccccc2c(O)c1Cc1c(O)c2ccccc2oc1=O [Dicumarol]
92.4

Next compound up: Cc1cc(N)c2ccccc2[n+]1CCCCCCCCCC[n+]1c(C)cc(N)c2ccccc21 [Dequalinium dichloride]
2.2

Same lookup for CCC[C@H](N[C@@H](C)C(=O)N1[C@H](C(=O)O)C[C@@H]2CCCC[C@@H]21)C(=O)OCC [Perindopril] , please.
96.9
